Target: T1, human chemokine (C-C motif) receptor 8 (CCR8) (human, UniProt P51685 1-355)
T1 construct: On human peripheral blood lymphocytes / PBMC (native) or on human CCR8 GFP-transfected Ba/F3 cells; also called hCCR8; human CCR8
T1 sequence (P51685 whole entry): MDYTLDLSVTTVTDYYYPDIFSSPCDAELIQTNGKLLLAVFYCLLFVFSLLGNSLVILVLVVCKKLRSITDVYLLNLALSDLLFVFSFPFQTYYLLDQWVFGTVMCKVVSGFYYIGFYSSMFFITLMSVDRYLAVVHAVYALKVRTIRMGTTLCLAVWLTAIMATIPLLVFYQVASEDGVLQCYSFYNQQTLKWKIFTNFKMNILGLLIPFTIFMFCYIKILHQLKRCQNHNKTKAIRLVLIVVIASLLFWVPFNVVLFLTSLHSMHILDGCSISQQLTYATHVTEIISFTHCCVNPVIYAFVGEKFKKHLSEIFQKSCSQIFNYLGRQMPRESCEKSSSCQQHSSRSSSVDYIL
Experiment: flow cytometry blocking, PBMC CCR8+ CD4+ cells; competitor PE-AB15 (its MFI is read)
metric_name: % Blocking (%)
The reply should be a number in %, with the unit left off.

Field: example entries. Status: answers known.
>>> numeric_value("AB10 (antibody, V domains shown, Hybridoma monoclonal; also called antibody 10; clone 10) VH: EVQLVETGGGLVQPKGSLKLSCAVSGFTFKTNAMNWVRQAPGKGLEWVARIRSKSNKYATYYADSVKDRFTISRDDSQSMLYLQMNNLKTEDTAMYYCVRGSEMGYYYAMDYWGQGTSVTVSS VL: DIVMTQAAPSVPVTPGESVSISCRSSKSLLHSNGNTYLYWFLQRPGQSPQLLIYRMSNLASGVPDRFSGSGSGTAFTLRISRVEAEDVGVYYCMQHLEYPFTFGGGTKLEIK")
-0.06
>>> numeric_value("AB1 (antibody, V domains shown, Hybridoma monoclonal (mice or rats immunised); Used purified and PE-conjugated; also called antibody 1; clone 1) VH: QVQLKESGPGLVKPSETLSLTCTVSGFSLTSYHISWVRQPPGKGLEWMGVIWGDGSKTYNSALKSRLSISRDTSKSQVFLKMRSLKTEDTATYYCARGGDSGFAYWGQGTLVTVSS VL: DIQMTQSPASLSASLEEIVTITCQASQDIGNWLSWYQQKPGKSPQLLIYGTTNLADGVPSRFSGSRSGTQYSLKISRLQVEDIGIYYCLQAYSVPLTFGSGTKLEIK")
1.66

*Q* // query % Blocking value for entry AB15 (antibody, V domains shown, Hybridoma monoclonal; also called antibody 15; clone 15) VH: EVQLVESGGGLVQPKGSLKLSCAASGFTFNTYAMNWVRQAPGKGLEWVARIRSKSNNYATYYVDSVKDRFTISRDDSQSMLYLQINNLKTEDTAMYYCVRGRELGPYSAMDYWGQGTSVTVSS VL: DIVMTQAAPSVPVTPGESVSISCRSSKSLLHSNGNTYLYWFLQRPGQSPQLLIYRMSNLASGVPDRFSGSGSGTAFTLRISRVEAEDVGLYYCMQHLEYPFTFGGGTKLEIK
*A* 19.4
